assay: Pharmacokinetics after single intramuscular administration in female SD rats (Example 18); assay type: in vivo; details: Sprague-Dawley, rat, plasma, im, 59 mg/kg, Compound I 100 mg/mL, IM two sites, mean ± SD
measured attribute: Tmax (h)
Respond with the bare value in h.

In one line, give reported Tmax of the entry C[C@]12CC[C@@H]3c4ccc(OP(=O)(O)O)cc4C[C@@H](CCC[S+]([O-])CCCC(F)(F)C(F)(F)F)[C@H]3[C@@H]1CC[C@@H]2O (stereo partly shown) .
1.83

====

test: Pharmacokinetics after single intramuscular administration in female SD rats (Example 18); type: in vivo; settings: Sprague-Dawley, rat, plasma, im, 59 mg/kg, Compound I 100 mg/mL, IM two sites, mean ± SD, read-out: AUClast of Compound I in plasma
measured attribute: AUC(0-t) (ng·h/mL)
Respond with the bare value in ng·h/mL.

In one line, give reported AUC(0-t) of the entry C[C@]12CC[C@@H]3c4ccc(OP(=O)(O)O)cc4C[C@@H](CCC[S+]([O-])CCCC(F)(F)C(F)(F)F)[C@H]3[C@@H]1CC[C@@H]2O (stereo partly shown) .
12800

====

Assay: Pharmacokinetics after single intramuscular administration in female SD rats (Example 18)
Assay type: in vivo
Details: Sprague-Dawley, rat, plasma, im, 59 mg/kg, Compound I 100 mg/mL, IM single site, mean ± SD, read-out: AUClast of Compound I in plasma
Experimental: The objective of the study was to evaluate single site Vs. two site IM injection of compound I and it impact on pharmacokinetic exposure in female rats. Study was performed in female SD rats with n=6 animals per group. […] Bioanalysis in plasma samples was performed using fit-for-purpose LC-MS/MS method for the quantification Fulvestrant and Compound I. Linearity range for Fulvestrant and Compound I analytes were 2 to 2000 ng/mL. […]
measured attribute: AUC(0-t) (ng·h/mL)
Respond with the bare value in ng·h/mL.

In one line, give reported AUC(0-t) of the entry C[C@]12CC[C@@H]3c4ccc(OP(=O)(O)O)cc4C[C@@H](CCC[S+]([O-])CCCC(F)(F)C(F)(F)F)[C@H]3[C@@H]1CC[C@@H]2O (stereo partly shown) .
12400

====

test: Pharmacokinetic study in female Beagle dog, 169.5 mg/mL composition (Example 24); format: in vivo; details: dog, plasma; female Beagle dogs; Compound I 169.5 mg/mL, 17 mg/kg IM, two sites
measured attribute: Tmax (h)
Respond with the bare value in h.

In one line, give reported Tmax of the entry C[C@]12CC[C@@H]3c4ccc(OP(=O)(O)O)cc4C[C@@H](CCC[S+]([O-])CCCC(F)(F)C(F)(F)F)[C@H]3[C@@H]1CC[C@@H]2O (stereo partly shown) .
8

====

assay: Pharmacokinetics after single intramuscular administration in female SD rats (Example 18); assay type: in vivo; conditions: Sprague-Dawley, rat, plasma, im, 59 mg/kg, Compound I 100 mg/mL, IM single site, mean ± SD
measured attribute: Tmax (h)
Respond with the bare value in h.

In one line, give reported Tmax of the entry C[C@]12CC[C@@H]3c4ccc(OP(=O)(O)O)cc4C[C@@H](CCC[S+]([O-])CCCC(F)(F)C(F)(F)F)[C@H]3[C@@H]1CC[C@@H]2O (stereo partly shown) .
3.17

====

experiment: Pharmacokinetics after single intramuscular administration in female Beagle dogs (Example 19); type: in vivo; conditions: female, beagle, dog, plasma, im, 17 mg/kg, Compound I 100 mg/mL, 17 mg/kg IM, mean ± SD, read-out: AUClast of Compound I in plasma
measured attribute: AUC(0-t)
I'd appreciate it if you included the unit after the number.

In one line, give reported AUC(0-t) of the entry C[C@]12CC[C@@H]3c4ccc(OP(=O)(O)O)cc4C[C@@H](CCC[S+]([O-])CCCC(F)(F)C(F)(F)F)[C@H]3[C@@H]1CC[C@@H]2O (stereo partly shown) .
4320 ng·h/mL

Data origin: patent US20260124221A1
